# experimental_system: Protein skinhead-1 (Caenorhabditis elegans)
# Sequence (P34707 whole entry): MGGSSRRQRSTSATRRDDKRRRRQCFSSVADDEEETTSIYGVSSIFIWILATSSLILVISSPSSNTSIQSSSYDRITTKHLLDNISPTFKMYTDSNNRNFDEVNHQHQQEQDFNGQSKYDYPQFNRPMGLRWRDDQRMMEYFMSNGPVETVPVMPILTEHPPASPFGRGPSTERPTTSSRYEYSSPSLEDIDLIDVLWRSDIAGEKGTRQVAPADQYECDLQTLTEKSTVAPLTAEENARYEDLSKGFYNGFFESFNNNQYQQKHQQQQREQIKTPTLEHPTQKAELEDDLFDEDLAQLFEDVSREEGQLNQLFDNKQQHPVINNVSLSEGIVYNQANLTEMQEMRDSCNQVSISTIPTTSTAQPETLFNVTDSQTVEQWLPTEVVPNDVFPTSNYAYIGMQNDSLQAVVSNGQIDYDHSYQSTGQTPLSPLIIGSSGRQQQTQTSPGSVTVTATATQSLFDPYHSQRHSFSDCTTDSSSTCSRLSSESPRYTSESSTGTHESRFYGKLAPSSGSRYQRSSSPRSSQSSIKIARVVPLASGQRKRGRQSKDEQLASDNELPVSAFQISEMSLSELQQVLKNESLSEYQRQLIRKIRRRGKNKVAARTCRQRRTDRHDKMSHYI
# Format: functional
Activity calls are given as the source filed them.
Write down one outcome, taken from YES for active, NO for inactive

Solved entries (count: 10):
Ask: Could you kindly confirm the outcome this assay logged for Cc1ccc2c(c1)c(C)c(C)n2CC(O)CN1CCOCC1 (centres undefined) ?
Reply: NO

Ask: Moving on to c1ccc2sc(SCc3ccc(-c4nnco4)cc3)nc2c1
Reply: YES

Ask: Moving on to Cc1cccc(C)c1OCc1cc(C(=O)N2CCN(C3CCCC3)CC2)no1
Reply: NO

Ask: Moving on to Nc1ccc2c(Cl)cc(Cl)cc2c1
Reply: YES

Ask: Moving on to CCCC(C)C(=O)NCc1ccccc1OC (centres undefined)
Reply: NO

Ask: Moving on to O=[N+]([O-])c1ccc(N2CCCC2)c2ccncc12
Reply: NO

Ask: Moving on to Cc1cccc(C(=O)N(Cc2cccs2)C2CCS(=O)(=O)C2)c1 (centres undefined)
Reply: NO

Ask: Moving on to O=S1(=O)C=C(Oc2ccc3ccccc3c2)c2ccccc21
Reply: NO

Ask: Moving on to CCOC(=O)CSc1nc2ccccc2c(=O)n1CCN1CCOCC1
Reply: NO

Ask: Moving on to COc1cccc(-c2cccc(NC(=O)C3CCN(CC4CCOC4)CC3)c2)c1 (centres undefined)
Reply: NO

Others:
Ask: Could you kindly confirm the outcome this assay logged for CCOc1ccc(-c2cnc3ccccc3n2)cc1 ?
Reply: NO

Ask: Moving on to Cc1ccc(C(=O)n2nc(-c3cccnc3)nc2N)cc1
Reply: NO

Ask: Moving on to O=C(c1cc(COc2ccc(F)cc2Cl)on1)N1CCCCCC1
Reply: NO

Ask: Moving on to Cc1cc(O)c(C(C)C)cc1NC(=O)Nc1ccc([N+](=O)[O-])cc1
Reply: NO

* * *

A set of molecules tested on Cytochrome P450 3A4 (Homo sapiens, UniProt P08684), with measured AC50:
quantity: AC50

Ask: Please look up its AC50: O=C(c1cccc(F)c1)N1CCC2(CC1)CN(c1ncccn1)C2
Reply: inconclusive

Ask: Moving on to C=C(C)CNCC(=C)C.Oc1c(Cl)c(Cl)c(Cl)c(Cl)c1Cl
Reply: inactive

Ask: Moving on to O=C(Cc1ccccc1)Nc1nc(=O)c2ccccc2s1
Reply: inconclusive

Ask: Moving on to O=C(O)CNC(=O)c1ccc([As](=O)(O)O)cc1
Reply: inactive

* * *

# System: Streptococcus
# protocol_description: GAS UMAA2166 growth inhibition – luminescence, BacTiterGlo, counter-screen for streptokinase expression inhibitor project, dose response (AID 1915);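 also: potency for reduction of bacterial viability or growth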
# Type: functional, organism-based
Active and inactive are the calls of the source.
Give EC50 for every item shown.

Ask: Please look up its EC50: Oc1cc(C(F)(F)F)nc2c(C(F)(F)F)cccc12
Reply: 8.27 µM (active)

Ask: Moving on to CCOc1cc(/C=C2/NC(=S)NC2=O)ccc1OCc1ccc([N+](=O)[O-])cc1
Reply: > 150 µM (not active)

Ask: Moving on to COc1cccc(N/N=C/c2cccc(Br)c2O)c1
Reply: > 150 µM (not active)

Record EC50 per entry; entries follow.
1. COc1ccc(/C=C/C(=O)NC(=S)NNC(=O)[C@H]2C[C@@H]2c2ccccc2)cc1OC
2. Cc1ccc(C(=O)C2=C(O)C(=O)N(Cc3ccco3)C2c2cccc(Br)c2)o1 (stereo not given)
3. O=[N+]([O-])c1ccc(NC(S)=NCCc2ccc(Cl)cc2)cc1
4. O=C(CNc1cccc2ccccc12)N/N=C/c1ccc[nH]1

Reply:
20.4 µM (active)
11.2 µM (active)
33.2 µM (active)
> 150 µM (not active)
